Test Details: Solubility by saturation of the solvent, filtration and determination of concentration in the supernatant
Type: physicochemical
Condition: thermodynamic from solid; in water at 25° C.
Assay Readout: solubility

- Smiles Input: "CC(=O)C1C(=O)N(C2CCCCC2)C(=O)N(C2CCCCC2)C1=O"
  Assay Readout: "solubility"
  Test Result: "< 100 µg/mL"
